Hello, the source for this data is ChEMBL document CHEMBL1201862, in case you need it.

- Tested on: SF-295
- PROTOCOL DETAILS: NCI tumour cell line growth inhibition, 48 h
The source made the active and inactive calls. Rule as the data show it: active = GI50 up to about 1.1 µM and inactive = higher.
METRIC NAME: GI50

# COMPOUND, RESULT
records = [
    ("Cc1cc2c(c(C(=O)NCC(=O)N[C@@H](C)C(=O)OCc3ccccc3)c1)Oc1c(cc(C)cc1C(=O)NCC(=O)N[C@@H](C)C(=O)OCc1ccccc1)S2", "> 100 µM (inactive)"),
]

Form field GI50, entry CCOc1ccc(OP2(=O)NC(=O)C=C(C)N2)cc1 (stereo unspecified) : > 100 µM (inactive)

get_value(item= CCC(C)C(C(=O)N/N=C1/SCC(=O)N1C)C(=O)N/N=C1/SCC(=O)N1C (stereo unspecified) , readout=GI50) returns > 100 µM (inactive)

In plain terms, S=C1SCN(C2CCCCCCCCCCC2)CN1C1CCCCCCCCCCC1 has a documented GI50 of > 100 µM (inactive)

GI50 recorded for this compound, CN1C(CC(O)c2ccccc2)CCCC1CC(O)(c1ccccc1)c1ccccc1 (stereo unspecified) , is 16.9 µM (inactive)

Briefly, GI50 measured for Cc1ccc(-c2nc3cc(Cl)ccc3[nH]2)cc1 : > 100 µM (inactive)

According to the records, this compound CCOC(=O)c1c(-c2ccc(OC)c(O)c2)c(C#N)c(=S)n(C2OC(CO)C(O)C(O)C2O)c1-c1ccccc1 (stereo unspecified) displays GI50 of > 100 µM (inactive)

CN1C(c2ccccc2)CC(=NO)CC1c1ccccc1 (stereo unspecified) has a reported GI50 of 41.5 µM (inactive)

So, Cc1coc2c1[C@@H](O)[C@@]1(C)[C@H](CCC[C@@H]1C)C2 ? Its GI50 was 45 µM (inactive)

So, NCP(=O)(O)OCC(=O)O ? Its GI50 was > 100 µM (inactive)

So, C[C@@]1(CBr)C[C@@](C)(/C=C/Cl)[C@@H](Cl)C[C@H]1Cl ? Its GI50 was 13.8 µM (inactive)

Briefly, GI50 measured for CCc1cccc(C)c1NC(=O)CCc1nnc(S)[nH]1 : > 100 µM (inactive)

So for CCOC(=O)C(CC(C)C)NC(=O)C(N)Cc1ccc(N(CCCl)CCCl)cc1 (stereo unspecified) , the logged GI50 turned out to be 4.39 µM (inactive)

Lab book: GI50 of CCOP(=O)(OCC)C(c1ccc(F)cc1)N(C(=O)NC(F)(F)F)c1cccc(C(F)(F)F)c1 (stereo unspecified) noted as > 100 µM (inactive)

# GI50 (compound: CCCCN(CCCC)CC(O)c1cc(-c2ccc(C(F)(F)F)cc2)nc(-c2ccc(C(F)(F)F)cc2)c1 (stereo unspecified) ) is 26.7 µM (inactive)

Field GI50 (entry O=C1C(=Cc2cccc(Cl)c2)N=C(c2ccccc2)N1n1c(-c2ccccc2)nc2ccccc2c1=O ) reads 39 µM (inactive)

Just so you know, measured GI50 for CCn1c(SCC(=O)N/N=C2\SCC(=O)N2c2ccc(C)cc2)nc2ccccc2c1=O came out at 18.6 µM (inactive)

* * *

- Test system: NCI-H23
- PROTOCOL DETAILS: NCI tumour cell line growth inhibition, 48 h
Calls of active or inactive are those of the source. No stated cut-off is given here; in the data, active = GI50 up to about 1.1 µM and inactive = higher.
METRIC NAME: GI50

# COMPOUND, GI50
records = [
    ("N#CC(CC(=O)O)=C(c1ccccc1)c1ccccc1", "> 100 µM (inactive)"),
    ("C/C(CC(=O)Nc1cccc(Cl)c1C)=N\\N=C(N)N", "> 100 µM (inactive)"),
    ("O=C1N[C@@H]2c3c(Br)sc(Br)c3C(=O)[C@@H]2N1", "4.43 µM (inactive)"),
]

According to the records, this compound COc1cc2c(cc1OC)-c1cc3cc(OC)c(OC)cc3c(C)[n+]1CC2.O=C([O-])CS(=O)(=O)O displays GI50 of 35.4 µM (inactive)

Reported GI50 for CCOc1nc(OCC)nc(-c2cccn2-c2ccccc2)n1 was 30.8 µM (inactive)

Summary for this compound, C[Si](C)(C)/C=C/CN1C(=O)CCC1O (configuration not stated) : GI50 is > 100 µM (inactive)

Please fill in: GI50 reported for Oc1ccc(Cl)cc1C1=Nn2c(COc3ccc4c(c3)CCCC4)nnc2SC1 = 11.4 µM (inactive)

Recorded GI50 (compound COc1cccc(O)c1-c1cc(=O)c2c(O)c(OC)c(OC)c(OC)c2o1 [SKULLCAPFLAVONE II] ): 24.9 µM (inactive)

// sample CC1OC(n2ccc(=O)[nH]c2=O)C=C(OC(=O)c2ccccc2)C1=O (configuration not stated) , its GI50 was 36.6 µM (inactive)

GI50 reported for this compound CC1C2CC(C/C2=N/O)C1(C)C (configuration not stated) : > 100 µM (inactive)

Short answer for O=C1c2c(O)cccc2C(C2OC(CO)C(O)C(O)C2O)c2cc(CO)cc(O)c21 (configuration not stated) : GI50 was > 100 µM (inactive)

For COc1ccc(NC(=S)c2ccoc2C)cc1CC(=O)OC(C)C the compound record lists GI50 as 46.2 µM (inactive)

The compound O=C1C=CC2OC(c3ccccc3)C(O)C2O1 (configuration not stated) showed GI50 equal to 3.07 µM (inactive)

* * *

- Test system: DLD-1
- PROTOCOL DETAILS: NCI tumour cell line growth inhibition, 48 h
Active and inactive are the calls of the source. Rule as the data show it: active = GI50 up to about 1.1 µM and inactive = higher.
Mark one answer only. Choices: 1 (active), -1 (inactive)

Reference set (8 entries):
# COMPOUND, DISCRETE LABEL
records = [
    ("O=C1C(Cl)=C(Cl)C(=O)N1c1ccccc1Cl", -1),
    ("CN1CCCNCCN(CCc2ccccn2)CCCN(C)CC1", -1),
    ("C[Si](C)(C)/C=C/CN1C(=O)CCC1O (stereo not given)", -1),
    ("O=C(N/C(=C\\c1c(O)ccc2ccccc12)c1nc2ccccc2[nH]1)c1ccccc1", -1),
    ("Cc1cc(Br)cc(C)c1NC(=O)C(=O)C(C(=O)c1ccc(Cl)c(Cl)c1)C1OC(=O)c2ccccc21 (stereo not given)", -1),
    ("CCCOC(=O)CNC(=O)OC(C)(C)C", -1),
    ("NCP(=O)(O)OCC(=O)O", -1),
    ("CN1CCc2c1nc(-c1ccccc1)c1c2N(C)CC1", -1),
]

In: Just curious, what result did COC(=O)CCC(=O)Nc1cc(C)ccc1C get here?
Out: -1

In: Per the assay record, what outcome was assigned to Cc1cc2cccc(Cl)c2nc1C(=O)c1ccccc1 ?
Out: -1

* * *

- System: IGROV-1
- PROTOCOL DETAILS: NCI tumour cell line growth inhibition, 48 h
Calls of active or inactive are those of the source. Cut-off read from the data, not from the text of the source: active = GI50 up to about 1.1 µM and inactive = higher.
In this section we review reported GI50 values for a set of molecules.

// worked examples, GI50 included
# MOLECULE, GI50
rows = [
    ("COc1ccc(C(c2ccc(OC)cc2)N2C(=O)CCC2C(=O)O)cc1 (stereo not given)", "> 100 µM (inactive)"),
    ("CCOC(=O)C1C(=O)CC(=O)C2CCCCC21 (stereo not given)", "> 100 µM (inactive)"),
    ("C=C1C(=O)O[C@H]2[C@H](OC(C)=O)[C@@H](C)CCC/C(C)=C/CC[C@@]3(C)O[C@@H]3C[C@@H]12", "2.77 µM (inactive)"),
    ("C[n+]1c2ccccc2c(C(=O)Nc2ccc(S(=O)(=O)Nc3ccnn3-c3ccccc3)cc2)c2ccccc21", "> 100 µM (inactive)"),
    ("C/C=C1\\C=C(OC)CN(CCc2c[nH]c3ccccc23)C1", "> 100 µM (inactive)"),
]

# lookup: CC1CC(=O)CC[C@@H]1OCc1ccccc1 (stereo not given in full) on IGROV-1, GI50 = > 100 µM (inactive)

Bench note, IGROV-1: entry CC1=COC2=C(C)C(=O)C(=O)c3c(C)ccc1c32 [MANSONONE F] , its GI50 = 3.74 µM (inactive)

Bench note, IGROV-1: entry O=C(O)C(Cc1c[nH]c2ccccc12)N1C(=O)c2ccccc2C1=O (stereo not given) , its GI50 = 16.3 µM (inactive)

# Cc1cc2cccc(Cl)c2nc1C(=O)c1ccccc1 with IGROV-1: GI50 is > 100 µM (inactive)

Query CN1C(c2ccccc2)CC(=NO)CC1c1ccccc1 (stereo not given) on IGROV-1; GI50 returned: > 100 µM (inactive)

* * *

- System: HT-29
- PROTOCOL DETAILS: NCI tumour cell line growth inhibition, 48 h
Active and inactive are the calls of the source. No stated cut-off is given here; in the data, active = GI50 up to about 1.1 µM and inactive = higher.
Answer with one of the outcomes TRUE = active, FALSE = inactive

# COMPOUND, DISCRETE LABEL
records = [
    ("Oc1cc(Cc2ccccc2)c(Cc2ccccc2)cc1O", "FALSE"),
]

In: Call for entry Fc1cccc(C2SCc3nc4cc5ccccc5cc4n32)c1 (stereo not given) :
Out: FALSE

In: What did this assay record as the result for O=C1C(Cl)=C(Cl)C(=O)N1c1ccccc1Cl ?
Out: FALSE

In: Status in this test for NC1CC(=O)c2sc(I)cc21 (stereo not given) ?
Out: FALSE

In: Look up the recorded call for C=C(Cl)[C@](Cl)(CBr)CC[C@@H](Br)C(C)(C)Cl in this test.
Out: TRUE

In: How did this test come out for COc1ccc(/C=C2\CNC/C(=C\c3ccc(OC)cc3)C2=O)cc1 ?
Out: FALSE

In: Hello, I am checking results. What call was entered for COc1ccc2c([nH]c3cc(O)c(C)cc32)c1C=O ?
Out: FALSE
